Attribution: ChEMBL document CHEMBL3813616

target: 3-phosphoinositide-dependent protein kinase 1 (Homo sapiens); assay: Inhibition of human His6-tagged PDK1 using biotinylated PDKtide as substrate after 60 mins by topcount method
pIC50: −log10 of the molar value.
The reader will find reported pIC50 values listed item by item below.

CCc1cc(-c2c[nH]c3ncccc23)ncn1 ... < 5.00
CNc1nccc(-c2cn(CCOC)c3ncccc23)n1 ... < 5.00

Input: Assign pIC50 to the following record: CCc1cc(-c2c[nH]c3nccc(Cl)c23)nc(N)n1
Output: < 5.00

----------
Target: 3-phosphoinositide-dependent protein kinase 1 (Homo sapiens, UniProt O15530)
Sequence (O15530 whole entry): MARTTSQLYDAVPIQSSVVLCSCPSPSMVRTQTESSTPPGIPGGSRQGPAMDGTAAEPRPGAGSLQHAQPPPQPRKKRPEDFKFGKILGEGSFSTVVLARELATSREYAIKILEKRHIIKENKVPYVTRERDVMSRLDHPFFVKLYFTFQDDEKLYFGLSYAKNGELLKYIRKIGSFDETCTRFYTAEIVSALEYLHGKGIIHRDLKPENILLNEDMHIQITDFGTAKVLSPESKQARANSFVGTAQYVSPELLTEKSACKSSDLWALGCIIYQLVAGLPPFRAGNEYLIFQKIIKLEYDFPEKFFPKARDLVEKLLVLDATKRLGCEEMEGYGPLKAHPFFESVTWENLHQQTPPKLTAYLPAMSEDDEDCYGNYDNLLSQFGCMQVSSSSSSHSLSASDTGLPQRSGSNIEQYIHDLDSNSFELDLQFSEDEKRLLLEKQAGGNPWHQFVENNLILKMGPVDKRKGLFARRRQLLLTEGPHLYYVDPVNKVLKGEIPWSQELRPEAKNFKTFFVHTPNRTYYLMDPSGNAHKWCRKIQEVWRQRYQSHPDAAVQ
Test: Inhibition of human His6-tagged PDK1 using biotinylated PDKtide as substrate after 60 mins by topcount method
pIC50: −log10 of the molar value.
MEASURED_ATTRIBUTE: pIC50

CCc1cc(-c2c(C)[nH]c3ncccc23)nc(N)n1 ... < 5.00

Input: Lab note: record pIC50 of Cc1nccc(-c2c[nH]c3ncccc23)n1 tested on 3-phosphoinositide-dependent protein kinase 1 (Homo sapiens, UniProt O15530).
Output: < 5.00

Input: Please report the measured pIC50 for Nc1ncc(Br)c(-c2c[nH]c3ncccc23)n1 tested on 3-phosphoinositide-dependent protein kinase 1 (Homo sapiens, UniProt O15530).
Output: < 5.00
